Data provenance is patent US20130177609A1.

- Protocol Details: Example 2: ocular tissue pharmacokinetics after topical dose, decreasing dose volume at same total amount of drug
- Assay type: in vivo, New Zealand Composite pigmented rabbits
- Condition Context: New Zealand Composite pigmented, rabbit, aqueous humor, topical or ocular, 10 ug, Aqueous Humor; 30 μL/eye of 0.33 mg/mL (10 μg), topical ocular; read-out: AUC(0-t)
- Experimental: This study was carried out using a non-crossover design involving a total of 84 New Zealand Composite pigmented rabbits arbitrarily divided into 3 groups of 28 rabbits each. […] The compositions were shipped to the test site as a ready-to-use suspension. […] At predetermined time intervals after dosing, rabbits (four per collection time) were euthanized after anesthetization and the eyes enucleated and dissected. […] BOL-303242-X concentrations in the above tissues and matrices were determined by LC/MS/MS. […]

Compound	AUC(0-t)
Cc1ccc2c(NCC(O)(CC(C)(C)c3cc(F)cc4c3OCC4)C(F)(F)F)cccc2n1 (stereo not shown)	3 ng·h/mL

----------
- Protocol Details: Example 2: ocular tissue pharmacokinetics after topical dose, decreasing dose volume at same total amount of drug
- Type: in vivo, New Zealand Composite pigmented rabbits
- Condition Context: New Zealand Composite pigmented, rabbit, cornea, topical or ocular, 10 ug; 100 μL/eye of 0.1 mg/mL (10 μg), topical ocular
Reported Endpoint: Tmax (min)

Compound	Reported Endpoint	Quantitative Readout
Cc1ccc2c(NCC(O)(CC(C)(C)c3cc(F)cc4c3OCC4)C(F)(F)F)cccc2n1 (stereo not shown)	Tmax	15

----------
- Protocol Details: Example 2: ocular tissue pharmacokinetics after topical dose, decreasing dose volume at same total amount of drug
- Assay type: in vivo, New Zealand Composite pigmented rabbits
- Condition Context: New Zealand Composite pigmented, rabbit, conjunctiva, topical or ocular, 10 ug; 100 μL/eye of 0.1 mg/mL (10 μg), topical ocular

Compound	Scale Unit	Tmax
Cc1ccc2c(NCC(O)(CC(C)(C)c3cc(F)cc4c3OCC4)C(F)(F)F)cccc2n1 (stereo not shown)	min	15

----------
- Protocol Details: Example 2: ocular tissue pharmacokinetics after topical dose, decreasing dose volume at same total amount of drug
- Type: in vivo, New Zealand Composite pigmented rabbits
- Condition Context: New Zealand Composite pigmented, rabbit, tears, topical or ocular, 10 ug; 100 μL/eye of 0.1 mg/mL (10 μg), topical ocular
- Method: This study was carried out using a non-crossover design involving a total of 84 New Zealand Composite pigmented rabbits arbitrarily divided into 3 groups of 28 rabbits each. […] The compositions were shipped to the test site as a ready-to-use suspension. […] At predetermined time intervals after dosing, rabbits (four per collection time) were euthanized after anesthetization and the eyes enucleated and dissected. […] BOL-303242-X concentrations in the above tissues and matrices were determined by LC/MS/MS. […]
Reported Endpoint: Tmax (min)

Compound	Reported Endpoint	Quantitative Readout
Cc1ccc2c(NCC(O)(CC(C)(C)c3cc(F)cc4c3OCC4)C(F)(F)F)cccc2n1 (stereo not shown) [BOL-303242-X]	Tmax	15

----------
- Protocol Details: Example 2: ocular tissue pharmacokinetics after topical dose, decreasing dose volume at same total amount of drug
- Type: in vivo, New Zealand Composite pigmented rabbits
- Condition Context: New Zealand Composite pigmented, rabbit, iris/ciliary body, topical or ocular, 10 ug; 30 μL/eye of 0.33 mg/mL (10 μg), topical ocular
- Description: This study was carried out using a non-crossover design involving a total of 84 New Zealand Composite pigmented rabbits arbitrarily divided into 3 groups of 28 rabbits each. […] The compositions were shipped to the test site as a ready-to-use suspension. […] At predetermined time intervals after dosing, rabbits (four per collection time) were euthanized after anesthetization and the eyes enucleated and dissected. […] BOL-303242-X concentrations in the above tissues and matrices were determined by LC/MS/MS. […]
Reported Endpoint: Tmax (min)

Molecule	Reported Endpoint	Scale Unit	Quantitative Readout
Cc1ccc2c(NCC(O)(CC(C)(C)c3cc(F)cc4c3OCC4)C(F)(F)F)cccc2n1 (stereo not shown) [BOL-303242-X]	Tmax	min	4.98
